# Target Desc: T1, naked peptide TDFTSPIPNM (human)
# T1 peptide: TDFTSPIPNM
# Experimental Details: ELISA naked peptide; scFv 1 ug/mL; repI
Catalogue of OD450 values
Provide the reading as a plain figure in OD.

Use these answered entries as a reference point.
Binder | OD450, OD
CCR9_HUM2 scFv (humanized anti-CCR9 scFv, SEQ ID NO: 17 with C-terminal 6xHis tag) (scFv) scFv: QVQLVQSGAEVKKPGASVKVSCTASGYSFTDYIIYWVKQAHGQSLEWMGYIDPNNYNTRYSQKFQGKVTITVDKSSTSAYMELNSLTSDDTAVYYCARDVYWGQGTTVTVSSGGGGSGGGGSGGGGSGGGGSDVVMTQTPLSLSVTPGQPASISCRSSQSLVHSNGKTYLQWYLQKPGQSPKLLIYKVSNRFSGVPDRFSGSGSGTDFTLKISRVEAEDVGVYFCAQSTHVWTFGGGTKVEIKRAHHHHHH | 0.05
Comparative antibody 3 (Comp-3) scFv, SR_92R (Somovilla-Crespo et al. 2018), His-tagged (scFv) scFv: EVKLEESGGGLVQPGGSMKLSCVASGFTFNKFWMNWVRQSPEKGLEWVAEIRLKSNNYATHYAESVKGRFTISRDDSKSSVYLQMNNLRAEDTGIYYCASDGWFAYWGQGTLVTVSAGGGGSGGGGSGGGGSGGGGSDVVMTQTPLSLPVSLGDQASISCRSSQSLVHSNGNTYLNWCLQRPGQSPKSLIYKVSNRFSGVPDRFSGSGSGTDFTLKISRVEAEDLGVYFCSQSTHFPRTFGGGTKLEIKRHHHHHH | 0.07
Comparative antibody 2 (Comp-2) scFv, 243LO326 (VH SEQ ID NO: 51 and VL SEQ ID NO: 52 of WO 2022/195028 A2), His-tagged (scFv) scFv: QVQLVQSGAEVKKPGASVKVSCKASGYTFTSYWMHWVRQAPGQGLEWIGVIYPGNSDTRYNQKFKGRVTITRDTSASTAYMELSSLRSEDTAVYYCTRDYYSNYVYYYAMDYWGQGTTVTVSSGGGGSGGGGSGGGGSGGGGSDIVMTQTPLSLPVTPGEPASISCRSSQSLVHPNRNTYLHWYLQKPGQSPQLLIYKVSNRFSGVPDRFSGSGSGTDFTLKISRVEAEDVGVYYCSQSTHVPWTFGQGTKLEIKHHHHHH | 0.04

Q. What does the data say about its OD450? Entry: Comparative antibody 1 (Comp-1) scFv, SEQ ID NO: 10 from WO2023/037125 A1, His-tagged (scFv) scFv: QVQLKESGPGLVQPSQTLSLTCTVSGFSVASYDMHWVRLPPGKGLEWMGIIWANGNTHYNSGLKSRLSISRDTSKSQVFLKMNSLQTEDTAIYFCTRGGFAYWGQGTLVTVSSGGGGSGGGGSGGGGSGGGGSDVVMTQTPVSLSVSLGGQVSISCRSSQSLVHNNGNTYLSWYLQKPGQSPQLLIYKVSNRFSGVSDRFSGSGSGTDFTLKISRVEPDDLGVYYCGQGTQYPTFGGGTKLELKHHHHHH
A. 0.03
